Data credit: PubChem BioAssay (NCI)

Listed next: entries and their corresponding growth.
System: A498 renal
Assay: NCI-60 one-dose screen, 48 h (100 = growth as untreated, 0 = no growth, -100 = all killed)
Details: 10 µM unless noted
This is part of a sample that, as a whole, favours compounds with a hit. Of some 83,000 tested, about 20% had one in any assay.

{"columns": ["Compound", "growth / %"],
 "data": [
  ["COc1cc(NC(=O)CCl)ccc(=O)c1", 85.7],
  ["COc1cc(-c2csc(NC(=O)Nc3ccc(Cl)cc3Cl)n2)cc(OC)c1OC", 34.8],
  ["O=C(Nc1cccc(C(F)(F)F)c1)Nc1ccc(OCc2nnc(-c3ccccc3)o2)c(F)c1", 43.5],
  ["COc1cccc(C2CC(=O)Nc3c2c(C)nn3-c2nc3ccccc3[nH]2)c1OC (stereo not given)", -5.31],
  ["COc1ccccc1OCC(=O)Nc1sc2c(c1C(N)=O)CCC2", 67.1]
]}

====

System: TK-10 renal
Experiment: NCI-60 one-dose screen, 48 h (100 = growth as untreated, 0 = no growth, -100 = all killed)
Details: 10 µM unless noted
The panel holds about 83,000 compounds, 20% with a hit somewhere; the sample as a whole holds those more often.
Parameter growth: see the listing below.
Measurement Label: growth (%)

{"columns": ["Structure Notation", "System", "Unit", "Endpoint Result"],
 "data": [
  ["CCn1cc(C(=O)O)c(=O)c2cc(F)c(N3CCN(S(=O)(=O)c4c(C)cc(C)cc4C)CC3)cc21", "TK-10 renal", "%", 97.5],
  ["C[C@]12CC[C@@H]3c4cc(O)c(O)cc4CC[C@H]3[C@@H]1CC[C@@H]2O", "TK-10 renal", "%", 87.5],
  ["CCc1c(C(=O)Nc2ccc3ccccc3c2)[nH]c(C)c1C(C)=O", "TK-10 renal", "%", 99.8],
  ["Cn1c(C(N)=O)cc2c1-c1nc(NC3CCCCC3)ncc1CCC2", "TK-10 renal", "%", 89.4],
  ["CNC(=O)c1cc(Oc2ccc3c(c2)sc2nc(-c4ccc(Cl)cc4)cn23)ccn1", "TK-10 renal", "%", 110],
  ["COC1=CC(c2ccc[nH]2)=N/C1=C\\c1[nH]c(C)c(C(=O)CCCCC(=O)NCc2ccccc2)c1C", "TK-10 renal", "%", 45.8],
  ["c1ccc2nc(-c3ccc4ccccc4n3)ccc2c1", "TK-10 renal", "%", 116]
]}

====

Tested on: CCRF-CEM leukemia
Assay: NCI-60 one-dose screen, 48 h (100 = growth as untreated, 0 = no growth, -100 = all killed)
Details: 10 µM unless noted
This is part of a sample that, as a whole, favours compounds with a hit. Of some 83,000 tested, about 20% had one in any assay.
Known growth of a selection of compounds

{"columns": ["Structure Notation", "growth [%]"],
 "data": [
  ["O=C(O)Cc1ccc2c(c1)Cc1cccnc1O2", 100],
  ["COc1cc(-c2nc(-c3nc4ccccc4[nH]3)cc3c2[nH]c2ccccc23)cc(OC)c1OC", 16.8],
  ["Cn1cc(C=O)c2ccccc21", 90.6]
]}

====

Test system: MOLT-4 leukemia
Assay: NCI-60 one-dose screen, 48 h (100 = growth as untreated, 0 = no growth, -100 = all killed)
Conditions: 10 µM unless noted
Compounds without any hit were thinned out: in the full panel of roughly 83,000, 20% have a hit.
Under this convention, satisfied denotes growth strictly below 70% and not satisfied denotes growth at or above 70%.

{"columns": ["Molecule", "Class Label"],
 "data": [
  ["NC(N)=NC(N)=Nc1ccccc1-c1ccccc1", "not satisfied"],
  ["CC1CCc2c(sc(NC(=O)CSc3nnc4ccccn34)c2C(N)=O)C1 (stereo unspecified)", "not satisfied"],
  ["O=C(Nc1cccc(Cl)c1)c1cc([N+](=O)[O-])ccc1O", "satisfied"],
  ["CC(C)N(Cc1ccc(CN(C(=O)CCl)C(C)C)cc1)C(=O)CCl", "satisfied"],
  ["Cc1cccc2cc(/C=C/C(=O)/C=C/c3ccc(Cl)cc3)c(=O)[nH]c12", "satisfied"],
  ["COc1ccc(NC(=O)CSc2nc3ccccc3c(=O)n2-c2ccccc2C(F)(F)F)c(OC)c1OC", "not satisfied"],
  ["C=C1C(=O)O[C@H]2[C@H]1CC/C(COC(=O)NCCc1ccc(Br)cc1)=C\\CC[C@@]1(C)O[C@@H]21", "satisfied"],
  ["CC[C@H](C)[C@@H]1NC(=O)[C@H]([C@@H](C)O)NC(=O)C(Cc2ccccc2)NC(=O)[C@@H]2CCCN2C(=O)C(C(C)C)NC(=O)C(Cc2ccccc2)NC(=O)CNC(=O)[C@@H]2CCCN2C1=O (stereo partly specified)", "satisfied"],
  ["COc1ccc(Cn2c(SC)nc(=O)n(Cc3ccc(Cl)cc3)c2=O)cc1", "not satisfied"],
  ["N#Cc1c(NC(=O)c2ccc([N+](=O)[O-])o2)[n+]([O-])c2cc(F)c(F)cc2[n+]1[O-]", "not satisfied"]
]}

====

System: SF-295 CNS
Experiment: NCI-60 one-dose screen, 48 h
Settings: 10 µM unless noted
Compounds without any hit were thinned out: in the full panel of roughly 83,000, 20% have a hit. Activity calls are given as the source filed them. The calls were made as follows: active = growth percent below 10; inactive = the rest.
Outcome codes: true (1) = active, false (0) = inactive

{"columns": ["Molecule", "System", "Class Label"],
 "data": [
  ["O=Nc1c(-c2c(O)[nH]c3ccc([N+](=O)[O-])cc23)[nH]c2ccc(O)cc12", "SF-295 CNS", "false (0)"],
  ["CN(C)c1nc(N)c(N=O)c(N)n1", "SF-295 CNS", "false (0)"],
  ["C=CCOc1cccc(/C=C/C(=O)c2sc(Nc3cccnc3)nc2C)c1", "SF-295 CNS", "false (0)"],
  ["c1ccc(CCn2nnc3c(Nc4ccc(N5CCOCC5)cc4)ncnc32)cc1", "SF-295 CNS", "false (0)"],
  ["Cc1ccc2c(c1)C(C)Cc1c(N(C)C)ncnc1N2C (configuration not stated)", "SF-295 CNS", "true (1)"],
  ["CCOC(=O)/C=C\\C(=O)NC(N)=O", "SF-295 CNS", "false (0)"],
  ["COc1cc2nc(SCc3cc(OC)c(OC)c(OC)c3)n(Cc3ccccc3)c(=O)c2cc1OC", "SF-295 CNS", "false (0)"]
]}

====

Tested on: MCF7 breast
Assay: NCI-60 one-dose screen, 48 h
Conditions: 10 µM unless noted
This is part of a sample that, as a whole, favours compounds with a hit. Of some 83,000 tested, about 20% had one in any assay. Calls of active or inactive are those of the source. Rule for the calls: active = growth percent below 10; inactive = the rest.
Outcomes: T (active), F (inactive)

{"columns": ["Compound", "Class Label"],
 "data": [
  ["Nc1nc(-c2ccccc2)cs1", "F"],
  ["COc1ccc(OC)c(NC(=O)c2cc(S(=O)(=O)N3CCc4ccccc43)ccc2OC)c1", "F"],
  ["COc1c(NC[C@H]2OC(O)[C@H](O)[C@@H](O)[C@@H]2O)c(=O)c1=O (some centres not stated)", "F"],
  ["COc1ccc2c(c1)NC(=O)CN2c1nc(C)nc2ccccc12", "F"],
  ["CC(=O)OCC1OC(OCC2OC(OC(C)=O)C(OC(C)=O)C(OC(C)=O)C2OC(C)=O)C(OC(C)=O)C(OC(C)=O)C1OC(C)=O (configuration not stated)", "F"],
  ["Cc1cccc(-n2c(C)nc3ccc(NC(=O)NCCCl)cc3c2=O)c1", "F"],
  ["CCC(c1ccc(OC)cc1)C(CC)c1ccc(OCC[N+](C)(C)C)cc1 (configuration not stated)", "F"],
  ["O=C(O)C(Cc1ccccc1)N1C(=O)/C(=C/C(Cl)=C/c2ccc([N+](=O)[O-])cc2)SC1=S (configuration not stated)", "F"],
  ["c1ccc([P+](CCC[P+](c2ccccc2)(c2ccccc2)c2ccccc2)(c2ccccc2)c2ccccc2)cc1", "F"],
  ["COc1cc(Cn2c(SCCC(=O)Nc3ccc(F)cc3)nc3ccccc3c2=O)cc(OC)c1OC", "F"],
  ["O=C(Nc1ccc(OCc2nnc(-c3ccc(Cl)cc3)o2)c(F)c1)Nc1ccc(Cl)c(Cl)c1", "F"],
  ["O=S(=O)(NCCCNc1cc(-c2cn(-c3ccccc3)nc2-c2cccc(O)c2)ccn1)c1cccc2ccccc12", "F"],
  ["O=C1CCC(=O)N1Cc1ccccc1", "F"],
  ["O=C1Nc2cc(Cl)ccc2Oc2cc(Oc3ccccc3)ccc21", "F"],
  ["COc1ccc(/C=C\\c2cc(OC)c(OC)c(OC)c2)c(NS(=O)(=O)c2ccc(C(C)(C)C)cc2)c1O", "F"],
  ["COC(=O)CCCCCN=Cc1c(O)c(O)c(C(C)C)c2cc(C)c(-c3c(C)cc4c(C(C)C)c(O)c(O)c(C=NCCCCCC(=O)OC)c4c3O)c(O)c12", "F"],
  ["N#CC1=C(N)n2nc(-c3ccncc3)nc2NC1c1cccc2ccccc12 (configuration not stated)", "F"],
  ["CC/C=C\\C/C=C\\C[C@H](O)C/C=C1/C(=O)C=C[C@H]1C/C=C\\CCC(=O)OC", "F"],
  ["COC(=O)CCCCN=Cc1c(O)c(O)c(C(C)C)c2cc(C)c(-c3c(C)cc4c(C(C)C)c(O)c(O)c(C=NCCCCC(=O)OC)c4c3O)c(O)c12", "T"],
  ["Clc1cccc(Cl)c1Cn1c(-c2cncs2)nc2ccccc21", "F"],
  ["COc1cc(-c2nc(-c3nc4ccccc4[nH]3)cc3c2[nH]c2ccccc23)cc(OC)c1OC", "F"],
  ["Cc1ccc(S(=O)(=O)OCC(=O)Nc2ccc(C(=O)O)c(O)c2)cc1", "F"],
  ["COc1cc(C(=O)N2CCN(C(=O)c3ccco3)CC2)c(N)cc1OCc1ccccc1", "F"],
  ["CCn1cc(C(=O)O)c(=O)c2cc(F)c(N3CCN(S(=O)(=O)c4c(C)cc(C)cc4C)CC3)cc21", "F"],
  ["COc1cccc(C2CC(=O)Nc3c2c(C)nn3-c2nc3ccccc3[nH]2)c1OC (configuration not stated)", "F"],
  ["O=C(CCC(=O)OC1CCCC1)OC1CCCC1", "F"],
  ["CCN(CC)c1cc(/C=C/c2ccc(OC)c(OC)c2)nc2cc(F)c(F)cc12", "F"]
]}
